tested on: PC-3; assay: Cytotoxicity against human PC3 cells after 72 hrs by MTT assay; assay type: functional, cell-based; settings: Homo sapiens, PC-3, 72 h; read-out: IC50
Entries whose IC50 is below 8 µM take Fulfilled; entries at or above 8 µM take Not fulfilled.

Is IC50 strictly under 8 µM for the entry `C=C1CCC[C@@H]2[C@@](C)(CC[C@@]3(C)CC[C@H]([C@H](C)C(=O)OC)OO3)[C@H](C)CC[C@@]12C` ?
Not fulfilled

Is IC50 strictly under 8 µM for the entry C/C(=C\CC[C@]1(C)CC[C@@H]([C@@H](C)C(=O)O)OO1)CCC12OC1(C)CCCC2(C)C (relative stereo) ?
Fulfilled

Is IC50 strictly under 8 µM for the entry CC1=C(CC[C@]2(C)O[C@H]2CC[C@]2(C)CC[C@@H]([C@@H](C)C(=O)O)OO2)C(C)(C)CCC1 (relative stereo) ?
Fulfilled

Is IC50 strictly under 8 µM for the entry `C=C1CCC[C@@H]2[C@@H](CC[C@@]3(C)CC[C@H]([C@H](C)C(=O)O)OO3)[C@H](C)CC[C@@]12C` ?
Not fulfilled

Is IC50 strictly under 8 µM for the entry `COC(=O)[C@H](C)[C@H]1CC[C@@](C)(CCC2=C(C)CCCC2(C)C)OO1` ?
Not fulfilled

// next entry
Is IC50 strictly under 8 µM for the entry C=C1CCCC(C)(C)C1(O)CC/C(C)=C/CC[C@]1(C)CC[C@@H]([C@@H](C)C(=O)O)OO1 (some centres not stated) [HURGHAPEROXIDE] ?
Not fulfilled
